Where do these numbers come from? They come from patent US20210032312A1.

# measured.target: T1, cynomolgus monkey CD8A on primary cynomolgus monkey CD8+ T cells (cynomolgus monkey, UniProt P01732 23-235 (human entry))
# T1 construct: also called Cyno CD8alpha
# T1 sequence (P01732 other isoform, or with tags, fused parts or gaps limits assumed): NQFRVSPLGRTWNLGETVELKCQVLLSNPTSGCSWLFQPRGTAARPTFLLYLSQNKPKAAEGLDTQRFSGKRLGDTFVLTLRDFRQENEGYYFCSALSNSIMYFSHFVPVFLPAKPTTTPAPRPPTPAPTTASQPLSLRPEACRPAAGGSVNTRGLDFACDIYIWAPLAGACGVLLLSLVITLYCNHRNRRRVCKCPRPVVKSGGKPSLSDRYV
# method.notes: flow cytometry, cyno CD8+ T cells, 2 uM FN3
measured.attribute: Cyno T-cell Binding 2 uM (MFI)

>  <binder>
P283AR9P1362_D4 (designed binder, FN3 domain) LPAPKNLVVSRVTEDSARLSWVREHDSFDSFLIQYQESEKVGEAIVLTVPGSERSYDLTGLKPGTEYTVSIYGVDVKYDIDSRPISSNPLSAIFTT

>  <measured.attribute>
Cyno T-cell Binding 2 uM (MFI)

>  <result.value>
25700 MFI

$$$$

// moving on: another record for Cyno T-cell Binding 2 uM (MFI)
Exercise: Return the recorded Cyno T-cell Binding 2 uM (MFI) value; entry: P282ER9P1360_E4 (designed binder, FN3 domain) LPAPKNLVVSRVTEDSARLSWTAPDAAFDSFGILYYEPVDSGEAITLPVLGSERSYDLTGLKPGTEYWVVITGVKGGAPSTPLGAIFTT
Solution: 60800 MFI
